# credit: PubChem BioAssay AID2060906

System: 485176-168-R4-J1-PDC complex spheroid growth;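 also: spheroids exposed to compounds for seven days before readout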
Assay: Anticancer human tumor 485176-168-R4-J1-PDC patient-derived pancreatic adenocarcinoma cell line growth inhibition [RAS]
Details: curve of first compound; second compound 0.3 µM
pIC50: −log10 of the molar value.
Measurement Label: pIC50

{"columns": ["Compound", "Measurement Label", "Observed"],
 "data": [
  ["CCN1CCN(Cc2ccc(Nc3ncc(F)c(-c4cc(F)c5nc(C)n(C(C)C)c5c4)n3)nc2)CC1 + CCn1c(-c2cccnc2C(C)OC)c2c3cc(ccc31)N1CCOC(CC(NC(=O)C(C(C)C)N(C)C(=O)C3(F)CCN(C(=O)C#CC(C)(C)N(C)C)CC3)C(=O)N3CCCC(N3)C(=O)OCC(C)(C)C2)C1", "pIC50", "< 6.00"]
]}

Query for 485176-168-R4-J1-PDC complex spheroid growth: what pIC50 does the record show for CCN1CCN(Cc2ccc(Nc3ncc(F)c(-c4cc(F)c5nc(C)n(C(C)C)c5c4)n3)nc2)CC1 + CCn1c(-c2cc(N3CCN(C)CC3)cnc2C(C)OC)c2c3cc(ccc31)-c1csc(n1)CC(NC(=O)C1CC1C)C(=O)N1CCCC(N1)C(=O)OCC(C)(C)C2 ?
< 6.00
